# Tested on: pathogenic bacteria
# TEST: MIC by microdilution broth method (NCCLS M7-A4), in vitro antibacterial activity
# Format: cell-based
# CONDITION CONTEXT: Streptococcus pneumoniae, Organism C: fluoroquinolone-resistant clinical isolate of Streptococcus pneumoniae (QRDR amino acid substitutions)
MEASURE NAME: MIC

Q) Which MIC value is on record for `COc1c(N2CCC/C(=C(\C)CN)C2)c(F)cc2c(=O)c(C(=O)O)cn(C3CC3)c12` ?
A) ≤ 0.5 mg/L

Q) Need MIC, item `C[C@H]1COc2c(N3CCC/C(=C\CN)C3)c(F)cc3c(=O)c(C(=O)O)cn1c23`
A) > 16 mg/L

Q) Please report the recorded MIC for `NC/C(F)=C1\CCCN(c2cc3c(cc2F)c(=O)c(C(=O)O)cn3C2CC2)C1` .
A) > 16 mg/L
